Recorded values, source ChEMBL document CHEMBL4138162.

Molecular target: Ephrin type-A receptor 2 (Homo sapiens)
Experiment: Agonist activity against EphA2 (unknown origin) overexpressed in MDA-MB-231-A2 cells assessed as increase in phosphorylated EphA2 levels at 2 to 50 uM after 30 mins by immunoprecipitation and immunoblot assay relative to 50 uM doxazosin
Format: cell-based
The source made the active and inactive calls. The calls are words filed in the database; no cut-off is given here.
Choose the fitting class; nothing outside active, inactive is accepted.

Solved entries:
COc1ccc(CC(=O)N2CCN(c3nc(N)c4cc(OC)c(OC)cc4n3)CC2)cc1    active
COc1cc2nc(N3CCN(C(=O)C(C)c4ccccc4)CC3)nc(N)c2cc1OC (centres undefined)    active
CCC(=O)N1CCN(c2nc(N)c3cc(OC)c(OC)cc3n2)CC1    inactive
COc1cc2nc(N3CCN(C(=O)Cc4ccc(OCc5ccccc5)cc4)CC3)nc(N3CCCC3)c2cc1OC    inactive
COc1cc2nc(N3CCN(C(=O)Cc4ccc(OCc5ccccc5)cc4)CC3)nc(N3CCCCC3)c2cc1OC    inactive
COc1cccc(CC(=O)N2CCN(c3nc(N)c4cc(OC)c(OC)cc4n3)CC2)c1    active
CCOc1cc2nc(N3CCN(C(=O)Cc4ccc(OCc5ccccc5)cc4)CC3)nc(N)c2cc1OCC    inactive
COc1cc2nc(N3CCN(C(=O)Cc4ccc(OCc5ccccc5)cc4)CC3)nc(NC(C)=O)c2cc1OC    inactive
COc1cc2nc(N3CCN(C(=O)c4ccncc4)CC3)nc(N)c2cc1OC    inactive
COc1ccc(C(=O)N2CCN(C(=O)c3ccc(OC)cc3)CC2)cc1    inactive

*Q* Recorded call for COc1cc2nc(N3CCN(C(=O)c4cccs4)CC3)nc(N)c2cc1OC ?
*A* inactive

*Q* Called result for COc1cc2nc(N3CCN(C(=O)CCCCC(=O)N4CCN(c5nc(N)c6cc(OC)c(OC)cc6n5)CC4)CC3)nc(N)c2cc1OC
*A* inactive

*Q* Record request — test call for COc1cc2nc(N3CCN(C(=O)c4ccc(-c5ccccc5)cc4)CC3)nc(N)c2cc1OC
*A* active

*Q* Status in this test for COc1cc2nc(N3CCN(C(=O)C4COc5ccccc5O4)CC3)nc(NC(C)=O)c2cc1OC (centres undefined) ?
*A* inactive
